This collection of values is drawn from patent US20240360089A1.

quantity-measured: melting point

Give recorded melting point. COc1ccccc1NC(=O)CCCCCCNC(=O)C(O)(O)C(F)(F)F
105 to 110 °C

Give recorded melting point. O=C(CCCCCCNC(=O)C(O)(O)C(F)(F)F)Nc1ccccc1 [Compound 10c]
123 to 128 °C

Give recorded melting point. O=C(CCCCCNC(=O)C(O)(O)C(F)(F)F)Nc1ccccc1 [Compound 10b]
103 to 108 °C

Give recorded melting point. O=C(CCCCCCNC(=O)C(O)(O)C(F)(F)F)Nc1ccccc1Br
108 to 113 °C

Give recorded melting point. COc1cccc(NC(=O)CCCCCCNC(=O)C(O)(O)C(F)(F)F)c1
120 to 125 °C

Give recorded melting point. O=C(CCCCCCNC(=O)C(O)(O)C(F)(F)F)Nc1nccs1
137 to 142 °C

Give recorded melting point. CCOc1ccc(-c2cnc(NC(=O)CCCCCCNC(=O)C(O)(O)C(F)(F)F)s2)cc1
138 to 143 °C

Give recorded melting point. O=C(CCCCCCNC(=O)C(O)(O)C(F)(F)F)Nc1ncc(-c2ccc(O)cc2)s1
145 to 150 °C

Give recorded melting point. O=C(CCCCCCNC(=O)C(O)(O)C(F)(F)F)Nc1nc(-c2ccccc2)c(-c2ccccc2)s1
143 to 148 °C
